Molecular target: human ether-à-go-go-related gene (hERG) potassium channel (human, UniProt Q12809);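 note: peak tail current of the secondary pulse compared with the same well before compound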
Sequence (Q12809 whole entry, looked up): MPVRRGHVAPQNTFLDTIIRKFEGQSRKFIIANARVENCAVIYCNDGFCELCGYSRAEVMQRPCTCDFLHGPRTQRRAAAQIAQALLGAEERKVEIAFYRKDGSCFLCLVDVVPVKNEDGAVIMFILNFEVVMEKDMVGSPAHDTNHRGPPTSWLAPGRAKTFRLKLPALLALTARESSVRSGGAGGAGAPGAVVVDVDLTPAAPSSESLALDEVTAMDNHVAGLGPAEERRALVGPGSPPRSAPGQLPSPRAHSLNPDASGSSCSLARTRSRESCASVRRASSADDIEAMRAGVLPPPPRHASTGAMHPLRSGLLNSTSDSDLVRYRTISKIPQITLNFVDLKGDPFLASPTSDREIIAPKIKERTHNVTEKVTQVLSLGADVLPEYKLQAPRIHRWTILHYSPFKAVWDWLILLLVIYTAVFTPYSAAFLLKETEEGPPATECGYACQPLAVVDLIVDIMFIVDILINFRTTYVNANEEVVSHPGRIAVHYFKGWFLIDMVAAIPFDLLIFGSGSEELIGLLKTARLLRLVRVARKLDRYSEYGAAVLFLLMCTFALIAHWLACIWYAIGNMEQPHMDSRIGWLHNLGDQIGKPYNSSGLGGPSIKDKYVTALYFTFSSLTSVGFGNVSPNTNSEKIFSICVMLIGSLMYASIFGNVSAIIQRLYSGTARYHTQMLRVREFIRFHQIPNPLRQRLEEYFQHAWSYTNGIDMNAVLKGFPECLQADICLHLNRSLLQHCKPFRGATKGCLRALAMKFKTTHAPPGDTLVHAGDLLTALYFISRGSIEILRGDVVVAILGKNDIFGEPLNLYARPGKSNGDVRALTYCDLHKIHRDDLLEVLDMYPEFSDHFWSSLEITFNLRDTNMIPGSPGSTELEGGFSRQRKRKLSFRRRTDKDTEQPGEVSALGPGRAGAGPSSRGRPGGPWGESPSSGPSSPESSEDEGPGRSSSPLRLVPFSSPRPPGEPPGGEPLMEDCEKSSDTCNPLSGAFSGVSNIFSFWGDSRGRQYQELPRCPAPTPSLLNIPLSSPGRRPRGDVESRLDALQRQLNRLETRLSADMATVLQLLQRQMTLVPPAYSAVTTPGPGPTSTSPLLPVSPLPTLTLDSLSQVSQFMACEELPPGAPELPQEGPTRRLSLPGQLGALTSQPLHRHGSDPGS
Assay: primary screen, population patch clamp on CHO cells stably expressing hERG; higher = less effect of the substance
Among all 310,000 compounds or so, about 14,000 (4.5%) showed an effect of 50% or more. The effect is printed as a negative number. What follows is part of a selection rich in strong results, with near analogues and random picks from the rest.
Is hERG current change (%, negative = inhibition) at 10uM at least -20%? Then class 1. If not, class 0.

# count of solved cases: 5
>>> print(df.to_string())
                                   compound                             subjectoftest  classassignment
0  CC(C)NC(=O)C1CCN(C(=O)c2cc3sccc3n2Cc2ccc(F)cc2)CC1  human ether-à-go-go-related gene (hERG) potassium channel (human, UniProt Q12809)          class 1
1  O=C(NCCN1CCOCC1)c1cc2sccc2n1Cc1ccc(Cl)cc1  human ether-à-go-go-related gene (hERG) potassium channel (human, UniProt Q12809)          class 0
2  CCOc1cccc(CN2CCN(CCCc3ccccc3)C(CCO)C2)c1O (stereo not drawn)  human ether-à-go-go-related gene (hERG) potassium channel (human, UniProt Q12809)          class 0
3  COc1cccc(N2CCN(Cc3nc(N)nc(Nc4ccccc4OC)n3)CC2)c1  human ether-à-go-go-related gene (hERG) potassium channel (human, UniProt Q12809)          class 0
4      COc1cccc2c(=O)c3c([nH]c12)OC(C)(C)C3  human ether-à-go-go-related gene (hERG) potassium channel (human, UniProt Q12809)          class 1

In plain terms: is recorded hERG current change (%, negative = inhibition) at 10uM at least -20% for O=C(NCc1ccco1)C1CCN(C(=O)c2cc3sccc3n2Cc2ccc(F)cc2)CC1 ? class 0

In plain terms: is recorded hERG current change (%, negative = inhibition) at 10uM at least -20% for COc1ccccc1Nc1nc(N)nc(CSC(=S)N2CCN(c3ccccc3)CC2)n1 ? class 1

In plain terms: is recorded hERG current change (%, negative = inhibition) at 10uM at least -20% for Cc1ccc(-n2nc3c(c2NC(=O)c2ccco2)CS(=O)(=O)C3)cc1 ? class 0

---

Target: human ether-à-go-go-related gene (hERG) potassium channel (human);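 note: peak tail current of the secondary pulse compared with the same well before compound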
Assay: primary screen, population patch clamp on CHO cells stably expressing hERG; higher = less effect of the substance
Description: Briefly, Chinese hamster ovary (CHO) cells stably expressing the hERG channel were dislodged from tissue culture flasks and dispensed into PPC plates. […] During the recording, background leak currents were estimated by a 100 ms step to -80 mV from an initial holding potential of -70 mV and subtracted from the subsequent current measurement. The campaign was conducted in two phases using slight differences in recording protocol. […]
The whole screen tested about 310,000 compounds, of which about 14,000 (4.5%) showed an effect of 50% or more. The effect is printed as a negative number. Many of the other results were omitted from the sample, so strong results are more common in it than they were.
Can you tell me hERG current change (%, negative = inhibition) at 10uM for the items I'm about to list?
Give bare numbers, in %.

Recorded results for 2 molecules are shown here.
>>> print(df.to_string())
                                   molecule  endpointvalue
0  COc1ccc(C(CNC(=O)c2ccc(Cl)c(NC(=O)c3cccs3)c2)N2CCCC2)cc1 (stereo not shown)          -70.9
1  CCN(CC(=O)Nc1c(F)cccc1F)C(=O)c1cc([N+](=O)[O-])ccc1N1CCOCC1          -4.57

Report hERG current change (%, negative = inhibition) at 10uM for every entry below.
1. CCCN(CC(=O)Nc1ccc(F)c(F)c1F)C(=O)c1cc([N+](=O)[O-])ccc1N1CCOCC1
2. Cc1cc(NC(=O)c2cccc(S(=O)(=O)N3CCC(C)CC3)c2)no1

[-67.1, 0.978]

Report hERG current change (%, negative = inhibition) at 10uM for every entry below.
1. Cc1c(C(=O)N2CCOCC2)sc2nc(-c3ccccc3)cn12
2. CCOC(=O)C1CCN(C(=O)c2cc3c(-c4ccc(OC)c(OC)c4)nn(C)c3s2)CC1
3. COCCn1c(SCC(=O)Nc2cccc(S(N)(=O)=O)c2)nc2cc(Cl)ccc2c1=O

-11.2
-17
-38.8

Report hERG current change (%, negative = inhibition) at 10uM for every entry below.
1. CSc1ccccc1NC(=O)Cc1ccccc1
2. CCNc1nc(NC(C)C)nc(N(C#N)CCOc2ccccc2)n1
3. CCc1nc(N[C@@H](Cc2c[nH]c3ccccc23)C(=O)O)c2oc3ccccc3c2n1
4. CCOC(=O)C1CCCN(C(=O)c2sc3nc(-c4ccccc4)cn3c2C)C1 (stereo not shown)
5. COc1ccc(-c2cn3c(C)c(C(=O)N4CCN(c5ccccc5F)CC4)sc3n2)cc1
6. CCN(CC(=O)Nc1cc(Cl)ccc1C)C(=O)c1cc([N+](=O)[O-])ccc1N1CCOCC1

1. 13.8
2. -26
3. 8.39
4. -59.8
5. -29.8
6. -18.5
